# test target: Fyn (UniProt P06241)
# Sequence (P06241 whole entry, looked up): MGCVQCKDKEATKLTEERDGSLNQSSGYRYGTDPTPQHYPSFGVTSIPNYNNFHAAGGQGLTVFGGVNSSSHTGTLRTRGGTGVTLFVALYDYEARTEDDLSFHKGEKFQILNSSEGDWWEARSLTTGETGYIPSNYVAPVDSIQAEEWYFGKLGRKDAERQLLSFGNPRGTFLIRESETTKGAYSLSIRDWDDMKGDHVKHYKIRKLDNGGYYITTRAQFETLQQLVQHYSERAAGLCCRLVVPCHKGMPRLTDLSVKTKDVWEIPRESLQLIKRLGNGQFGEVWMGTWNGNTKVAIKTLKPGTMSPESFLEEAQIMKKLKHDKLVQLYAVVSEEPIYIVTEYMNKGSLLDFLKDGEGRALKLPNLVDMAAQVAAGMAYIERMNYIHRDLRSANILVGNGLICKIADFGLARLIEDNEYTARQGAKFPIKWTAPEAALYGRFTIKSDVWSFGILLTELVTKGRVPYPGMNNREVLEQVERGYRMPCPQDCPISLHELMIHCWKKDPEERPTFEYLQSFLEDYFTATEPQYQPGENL
# assay: phosphorylation enrichment, bacterial display (enrichment ratio); higher = better substrate or ligand; peptides without Tyr show the background;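 also: 11-residue human phosphosite peptides and single-mutation variants displayed on the E. coli surface, counted by deep sequencing, each peptide's frequency after selection divided by its frequency in the unselected input library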;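 also: frequency after pTyr selection over input frequency; kinase dosed for 20-30% of maximal phosphorylation in three min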
Use 0.5 as the dividing line for phosphorylation enrichment, with the line itself on the MET side and lower values as NOT MET.

# entry sequence, class label
data = [
    ("PSTYRYERGSR [INPPL1_Y663_P659S]", "MET"),
    ("MTEEQYIKMNR [ARFGEF2_Y797_K794E]", "NOT MET"),
    ("IEPGIYIPEDD [XPNPEP3_Y455]", "MET"),
    ("QPSALYEDRFL [ASS1_Y83_S79P_YF]", "MET"),
    ("GIKAAYEAERG [LMNA_Y81_L85R]", "NOT MET"),
    ("MCITRYERESQ [PRNP_Y218_Q217R]", "NOT MET"),
    ("NNRVFYGNSDR [RS1_Y177]", "NOT MET"),
    ("IGEGTYRQVFK [CDK13_Y716_G717R_YF]", "NOT MET"),
    ("LVRAFYCERRW [CARD11_Y970_R975W]", "MET"),
    ("EDDIIYTQDFM [STK11_Y362_T367M]", "MET"),
]

Each recorded value in this set is attributed to the supplement of paper PMC10065799.
